Numbers sourced from paper PMC7928716.

Target: T1, IRS1 PTB (157–267) (human, UniProt P35568 157-267)
T1 sequence: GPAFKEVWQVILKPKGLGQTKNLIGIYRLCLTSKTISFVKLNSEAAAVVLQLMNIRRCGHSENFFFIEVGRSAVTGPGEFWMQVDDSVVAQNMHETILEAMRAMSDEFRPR
Test: fluorescence polarisation
* marks the point of attachment. FITC = O=C1OC2(c3ccc(O)cc3Oc3cc(O)ccc32)c2ccc(NC(=S)*)cc21
measured property: Kd

# get_value(readout='Kd', item= {FITC}-SKGENNPGFQNT-NH2 [FITC-labeled ACE2(787–798) peptide] )
> 100 µM
